Biological target: Pantothenate kinase (Mycobacterium tuberculosis (strain ATCC 25618 / H37Rv), UniProt P9WPA7)
Assay: Biochemical Assay (ATP at 50x Km)
Quantity: log10(IC50) (log10 of the value in µM)
Quick note: numbers are log10 of IC50, with µM as the unit.

**Q:** Which log10(IC50) value is on record for CC(NC(=O)c1ccccc1C(F)(F)F)c1nnc(SCCOc2ccc(F)cc2)n1C (configuration not stated) ?
**A:** 0.74

**Q:** Similarly, CC(NC(=O)c1ccccc1C(F)(F)F)c1nnc(SCCOc2ccc(F)cc2)n1Cc1ccc(F)cc1 (configuration not stated) ?
**A:** -0.16

**Q:** // repeat for CC(NC(=O)c1c(F)cccc1F)c1nnc(SCCOc2ccc(F)cc2)n1C (configuration not stated) and report
**A:** 1.15

**Q:** Try the compound CC(NC(=O)c1ccccc1C(F)(F)F)c1nnc(SCc2ccc(F)cc2)n1C (configuration not stated)
**A:** 1.02

**Q:** Subsequent entry: `N#Cc1ccc(-c2ccc(COC(=O)O)cc2CN2CCN(c3ccccn3)CC2)cc1`
**A:** -0.89

**Q:** Then this compound: Cc1ccccc1OCCSc1nnc(C(C)NC(=O)c2ccccc2C(F)(F)F)n1C (configuration not stated)
**A:** 0.45

----------
Target: Pantothenate kinase (Mycobacterium tuberculosis (strain ATCC 25618 / H37Rv), UniProt P9WPA7)
Sequence (P9WPA7 whole entry): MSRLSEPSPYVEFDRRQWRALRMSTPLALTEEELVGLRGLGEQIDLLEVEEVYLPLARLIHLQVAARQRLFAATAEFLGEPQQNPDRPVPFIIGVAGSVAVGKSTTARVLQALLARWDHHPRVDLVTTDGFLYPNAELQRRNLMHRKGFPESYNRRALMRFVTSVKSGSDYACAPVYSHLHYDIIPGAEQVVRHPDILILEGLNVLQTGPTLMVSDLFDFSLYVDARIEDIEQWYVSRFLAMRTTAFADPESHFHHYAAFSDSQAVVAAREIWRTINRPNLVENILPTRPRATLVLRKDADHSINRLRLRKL
Test: Biochemical Assay (ATP at Km)
Please provide measured IC50 for the entries that follow.

**Q:** Fill in the blank: the reported IC50 of CC(NC(=O)c1ccccc1Cl)c1nnc(SCCOc2ccc(F)cc2)n1C (stereo not drawn) [Triazole 1b] is ____.
**A:** 1130 nM

**Q:** Query CC(NC(=O)c1ccccc1C(F)(F)F)c1nnc(SCCOc2ccc(F)cc2)n1C (stereo not drawn) [Triazole 1a] next
**A:** 90 nM

**Q:** Please do the same for N#Cc1ccc(-c2ccc(COC(=O)O)cc2CN2CCN(c3ccccn3)CC2)cc1 [Biaryl 2a] as well.
**A:** 120 nM

**Q:** Moving on to Cc1ccccc1OCCSc1nnc(C(C)NC(=O)c2ccccc2C(F)(F)F)n1C (stereo not drawn) [Triazole 1d]
**A:** 140 nM

**Q:** Same question for CC(NC(=O)c1ccccc1C(F)(F)F)c1nnc(SCc2ccc(F)cc2)n1C (stereo not drawn) [Triazole 1c] please.
**A:** 150 nM

**Q:** Could you do the same for CC(NC(=O)c1ccccc1C(F)(F)F)c1nnc(SCCOc2ccc(F)cc2)n1Cc1ccc(F)cc1 (stereo not drawn) [Triazole 1e] , please?
**A:** 50 nM

**Q:** Would you mind doing N#Cc1ccc(-c2ccc(OCC(N)=O)cc2CN2CCN(c3ccccn3)CC2)cc1 [Biaryl 2b] as well?
**A:** 550 nM

**Q:** What about this compound? CC(NC(=O)c1c(F)cccc1F)c1nnc(SCCOc2ccc(F)cc2)n1C (stereo not drawn) [Triazole 1f]
**A:** 1090 nM
